molecular target: Muscarinic acetylcholine receptor M2 (Homo sapiens, UniProt P08172); assay: Agonist activity at human muscarinic acetylcholine receptor M2 expressed in CHO cells assessed as increase in cAMP accumulation after 2 hrs by cAMP-Glo assay
Sequence (P08172 whole entry): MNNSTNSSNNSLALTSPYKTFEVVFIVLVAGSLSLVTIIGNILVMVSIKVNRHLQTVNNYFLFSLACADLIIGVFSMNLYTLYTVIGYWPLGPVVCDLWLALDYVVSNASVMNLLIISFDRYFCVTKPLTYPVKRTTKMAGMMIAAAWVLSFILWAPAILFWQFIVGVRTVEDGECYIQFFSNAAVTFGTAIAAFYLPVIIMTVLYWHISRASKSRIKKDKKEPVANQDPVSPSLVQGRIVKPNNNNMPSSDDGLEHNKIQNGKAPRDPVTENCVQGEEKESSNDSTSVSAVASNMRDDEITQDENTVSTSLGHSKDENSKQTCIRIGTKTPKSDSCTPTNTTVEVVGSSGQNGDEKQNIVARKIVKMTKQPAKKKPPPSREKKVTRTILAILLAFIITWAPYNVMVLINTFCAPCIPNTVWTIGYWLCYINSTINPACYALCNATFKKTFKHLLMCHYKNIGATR

{"columns": ["compound structure", "EC50"],
 "data": [
  ["Cc1cc2c(cc1Cc1ccc(-c3cocn3)cc1)C(=O)N([C@H]1CCOC[C@@H]1O)C2", "> 10 µM"]
]}

---

assay: Ratio of AUC in dog brain to plasma at 0.5 mg/kg, po or 0.1 mg/kg, iv administered as single bolus dose; assay type: ADME, organism-based, Canis lupus familiaris; settings: read-out: Ratio AUC

{"columns": ["compound structure", "Kp"],
 "data": [
  ["Cc1cc2c(cc1Cc1ccc(-c3cocn3)cc1)C(=O)N([C@H]1CCOC[C@@H]1O)C2", 0.7]
]}

---

assay: Ratio of AUC in rat brain to plasma at 2 mg/kg, po or 0.5 mg/kg, iv administered as single bolus dose; type: ADME, organism-based; conditions: read-out: Ratio AUC

{"columns": ["compound structure", "Kp"],
 "data": [
  ["Cc1cc2c(cc1Cc1ccc(-c3cocn3)cc1)C(=O)N([C@H]1CCOC[C@@H]1O)C2", 0.2]
]}

---

assay: Intrinsic clearance in human liver microsomes; assay type: ADME, microsome; details: read-out: CLH

{"columns": ["compound structure", "CLint scaled"],
 "data": [
  ["Cc1cc2c(cc1Cc1ccc(-n3ccnc3)cc1)C(=O)N([C@H]1CCOC[C@@H]1O)C2", "< 8 mL/min/kg"],
  ["Cc1cc2c(cc1Cc1ccc(-n3cccn3)cc1)C(=O)N([C@H]1CCOC[C@@H]1O)C2", "< 8 mL/min/kg"],
  ["Cc1cc2c(cc1Cc1ccc(-c3cocn3)cc1)C(=O)N([C@H]1CCOC[C@@H]1O)C2", "< 8 mL/min/kg"]
]}

Ref: ChEMBL document CHEMBL4017487
